TEST_SYSTEM: human CYP2C9, CYP2C9 (gene 1559)
ASSAY_DETAILS: NVS_ADME_hCYP2C9: NovaScreen (NVS) CYP450-related Enzyme Activity (ADME) Assay for human CYP2C9 (AID 2283108)
Inconclusive results are not listed. Calls of active or inactive are those of the source. Rule for the calls: active = hit-call score of the fitted dose curve at least 0.9, where 1 is the maximum; inconclusive = response in the unintended direction; inactive = score below 0.9.
Labels: Y for active, N for inactive

| STRUCTURE_SMILES | TEST_SYSTEM | CATEGORY |
| --- | --- | --- |
| COc1cc(C(=O)NC2CCN(C)CC2)ccc1Nc1ncc2c(n1)N(C1CCCC1)CC(F)(F)C(=O)N2C | human CYP2C9, CYP2C9 (gene 1559) | Y |
| CC(C)(O)c1ccc(CNC(=O)c2cccnc2Oc2ccc3nonc3c2)cc1 | human CYP2C9, CYP2C9 (gene 1559) | Y |
| NCc1cccc(C2CCN(C(=O)c3ccc(C#Cc4ccccc4F)o3)CC2)c1 | human CYP2C9, CYP2C9 (gene 1559) | Y |
| CCOC(=O)O[C@H](C)OC(=O)c1ccc2c(c1)cc(C(=O)NC1CCN(C(C)C)CC1)n2Cc1cc(-c2ccc(Cl)s2)on1 | human CYP2C9, CYP2C9 (gene 1559) | Y |
| Clc1ccccc1C(c1ccccc1)(c1ccccc1)n1ccnc1 | human CYP2C9, CYP2C9 (gene 1559) | Y |
| CCCCOC(=O)CC(CC(=O)OCCCC)(OC(C)=O)C(=O)OCCCC | human CYP2C9, CYP2C9 (gene 1559) | N |
| O=C1c2ccccc2C(=O)N1CCc1noc(-c2ccc(CN3CCCCCC3)s2)n1 | human CYP2C9, CYP2C9 (gene 1559) | Y |
| CC(C)(c1cc(Br)c(O)c(Br)c1)c1cc(Br)c(O)c(Br)c1 | human CYP2C9, CYP2C9 (gene 1559) | Y |
| CN(C)C(=O)C1(N2CCCCC2)CCN(CC[C@@]2(c3ccc(Cl)c(Cl)c3)CN(C(=O)c3ccccc3)CCO2)CC1 | human CYP2C9, CYP2C9 (gene 1559) | Y |
| CCCCOC(=O)c1ccc(O)cc1 | human CYP2C9, CYP2C9 (gene 1559) | Y |
| CN(C[C@@H](CC[N+]12CCC(C3CCCCC3)(CC1)CC2)c1ccc(Cl)c(Cl)c1)C(=O)c1cc(C(F)(F)F)cc(C(F)(F)F)c1 | human CYP2C9, CYP2C9 (gene 1559) | Y |

###

Read-out: Collagen III, COL3A1 (gene 1281)
ASSAY_DETAILS: BSK_hDFCGF_CollagenIII: BioMAP Diversity Plus: hDFCGF Assay for Collagen III Biomarker Activity (AID 2283056)
REPORTED_CONDITIONS: primary human foreskin fibroblasts; actives raise or lower the signal
The source made the active and inactive calls. The calls were made as follows: active = hit-call score of the fitted dose curve at least 0.9, where 1 is the maximum; inactive = score below 0.9.
Outcomes: active, inactive

| MOLECULE | CATEGORY |
| --- | --- |
| CN1C(=O)N(c2ccccc2Br)Cc2cnc(Nc3ccc4c(c3)OCC(CO)O4)nc21 (stereo not drawn) | inactive |
| Cc1occc1C(=O)Nc1ccc(C(=O)N2CCC(F)(F)/C(=C\C(=O)N3CCC(N4CCCCC4)CC3)c3ccccc32)cc1 | inactive |
| Cc1cc2c(cc1C(F)(F)F)N(C(=O)Nc1ccc(Oc3cccnc3C)nc1)CC2 | inactive |
| COCC(C)OCC(C)OCC(C)O (stereo not drawn) | inactive |
| Cc1ccc(C(C)C)cc1 | inactive |
| CCCCCc1ccc(N)cc1 | inactive |
| O=C1CCC(C2CCCCC2)CC1 | active |
| Cc1cc(F)ccc1-c1cc(N2CC[C@@H](O)[C@H]2CO)ncc1N(C)C(=O)C(C)(C)c1cc(C(F)(F)F)cc(C(F)(F)F)c1 | active |
| Oc1ccccc1 | inactive |
| CO[C@H]1/C=C/O[C@@]2(C)Oc3c(C)c(O)c4c(O)c(c(/C=N/N5CCN(C)CC5)c(O)c4c3C2=O)NC(=O)/C(C)=C\C=C\[C@H](C)[C@H](O)[C@@H](C)[C@@H](O)[C@@H](C)[C@H](OC(C)=O)[C@@H]1C | inactive |
| CCN(Cc1cccnc1)C(=O)c1cccc(Cl)c1[C@]1(C)C(=O)N(Cc2ccc(OC)cc2OC)c2ccc(Cl)cc21 | inactive |
| CCN(Cc1cccc(S(=O)(=O)O)c1)c1ccc(C(=C2C=CC(=[N+](CC)Cc3cccc(S(=O)(=O)O)c3)C=C2)c2ccccc2S(=O)(=O)[O-])cc1 | inactive |
| CN(C)c1ccc(C(=C2C=CC(=[N+](C)C)C=C2)c2ccc(N(C)C)cc2)cc1 | active |
| O=C(O)Cc1cc(I)c(Oc2ccc(O)c(I)c2)c(I)c1 | active |
| OCCO | inactive |
| CN(C[C@@H](CC[N+]12CCC(C3CCCCC3)(CC1)CC2)c1ccc(Cl)c(Cl)c1)C(=O)c1cc(C(F)(F)F)cc(C(F)(F)F)c1 | active |
| O=c1ccc2ccccc2o1 | inactive |
| COc1cc(C(=O)NC2CCN(C)CC2)ccc1Nc1ncc2c(n1)N(C1CCCC1)CC(F)(F)C(=O)N2C | active |
| CC(C)(C)c1csc(-c2cc3cc(OCc4ccccc4CC(=O)O)ccc3o2)n1 | active |
| CCCC(=O)OCCC(C)C | inactive |
| C[C@]12CC[C@@H]3c4ccc(O)cc4CC[C@H]3[C@@H]1CC[C@H]2O | active |
| CC[C@H](NC(=O)c1cc(F)ccc1NS(=O)(=O)c1cccc2cccnc12)c1ccccc1 | active |
| CN(C)C(=O)C1(N2CCCCC2)CCN(CC[C@@]2(c3ccc(Cl)c(Cl)c3)CN(C(=O)c3ccccc3)CCO2)CC1 | active |
| CCCCOC(=O)CC(CC(=O)OCCCC)(OC(C)=O)C(=O)OCCCC | inactive |
| CCCCCCCCCCCC[N+](C)(C)C | active |
| CC[C@@H]1C[C@H](N(Cc2cc(C(F)(F)F)cc(C(F)(F)F)c2)C(C)=O)c2cc(C(F)(F)F)ccc2N1C(=O)OC(C)C | inactive |
| CCCCCCCCCCCO | active |
| Clc1cc(Cl)c2c(c1)N=C1CCCCCN1C2 | inactive |
| Cc1c2ccccc2c(C)c2c1ccc1ccccc12 | active |
| O=C(O)c1ccccc1C(=O)OCc1ccccc1 | inactive |
| Oc1ccc2ccccc2c1 | inactive |
| CC1(C)NC(=O)N(c2ccc([N+](=O)[O-])c(C(F)(F)F)c2)C1=O | inactive |
| O=c1c(-c2ccc(O)cc2)coc2cc(O)cc(O)c12 | inactive |
| CC1=CC(=O)/C(=C(/C)O)C(=O)O1 | inactive |
| CC(C)(O)c1ccc(CNC(=O)c2cccnc2Oc2ccc3nonc3c2)cc1 | inactive |
| O=C1c2ccccc2C(=O)N1CCc1noc(-c2ccc(CN3CCCCCC3)s2)n1 | inactive |
| CCN(CC)C(=O)c1cc(S(=O)(=O)Cc2ccccc2)c(N2CCC(c3ccccc3)CC2)cc1N(CC)CCN(C)C | active |
| c1ccc2ccccc2c1 | inactive |
| NCc1cccc(C2CCN(C(=O)c3ccc(C#Cc4ccccc4F)o3)CC2)c1 | active |
| CC(=O)N1CCN(c2ccc(OC[C@H]3CO[C@](Cn4ccnc4)(c4ccc(Cl)cc4Cl)O3)cc2)CC1 | active |
| CCCCCCCCCC(=O)O | inactive |
| CCCCCCCCCCCCO | active |
| NC(=O)c1nc(-c2cccc(-c3cc(F)ccc3OCC(F)(F)C(F)(F)F)c2)n[nH]1 | active |
